- Target entity: T1, Human EphA2 (Ecto) (Human, UniProt P29317 24-537)
- T1 construct: extracellular domain
- T1 sequence (P29317 24-537): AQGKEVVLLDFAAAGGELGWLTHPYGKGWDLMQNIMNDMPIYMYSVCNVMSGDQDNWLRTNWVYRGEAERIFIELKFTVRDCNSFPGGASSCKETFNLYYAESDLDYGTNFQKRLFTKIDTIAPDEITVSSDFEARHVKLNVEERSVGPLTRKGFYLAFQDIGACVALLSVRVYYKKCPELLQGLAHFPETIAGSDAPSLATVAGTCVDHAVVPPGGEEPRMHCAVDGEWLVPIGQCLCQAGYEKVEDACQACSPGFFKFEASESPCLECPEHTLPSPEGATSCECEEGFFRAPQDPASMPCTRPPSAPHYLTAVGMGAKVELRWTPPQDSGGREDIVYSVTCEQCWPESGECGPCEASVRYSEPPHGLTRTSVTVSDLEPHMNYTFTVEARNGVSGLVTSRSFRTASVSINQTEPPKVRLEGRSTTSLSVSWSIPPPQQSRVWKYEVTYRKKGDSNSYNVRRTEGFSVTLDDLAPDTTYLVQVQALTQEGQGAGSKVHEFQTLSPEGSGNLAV
- Method description: FP competition; competitor Compound 66
- Experimental: Peptides without a fluorescent tag were tested in competition with a peptide with a fluorescent tag and a known Kd (Table 2). Peptides were diluted to an appropriate concentration in assay buffer as described in the direct binding assay with a maximum of 5% DMSO, then serially diluted 1 in 2. […] Measurements were conducted as for the direct binding assay, however the gain was determined prior to the first measurement.
Numbered stars: 1 amine (or outer) side, 2 acyl side, 3 side chain; on linkers, the order of the positions; unused ones are H or OH. Bridge positions count the residues as written; N and C are the ends. Square brackets hold non-standard residues; d marks the D form. Ends that are not written are not given here. 1Nal = N[C@@H](Cc1cccc2ccccc12)C(=O)O; TBMB = c1c(C[*:1])cc(C[*:3])cc1C[*:2]; hArg = N=C(N)NCCCC[C@H](N)C(=O)O; Tle = CC(C)(C)[C@H](N)C(=O)O; Aib = CC(C)(N)C(=O)O; Sar = CNCC(=O)O
Endpoint: pKi
The read-out pKi is expressed as -log10 of concentration in moles per litre.

// worked examples, pKi included
[Sar][Sar]ACP[1Nal]GPFWCP[Tle]NRP[dA]C (linker 4-11-18 via TBMB) [Compound 132]; 8.06
[Sar][Sar]ACPWGPYWCPVNRPGC (linker 4-11-18 via TBMB) [Compound 91]; 6.86
[Sar][Sar]ACP[1Nal]G[Aib]FWCPV[dA]RPGC (linker 4-11-18 via TBMB) [Compound 127]; 7.48
ACPWGPAWCPVNRPGCAGAAA (linker 2-9-16 via TBMB) [Compound 45]; 6.93
[Sar][Sar]ACP[1Nal]GPFWCPVN[hArg]P[dA]C (linker 4-11-18 via TBMB) [Compound 134]; 8.21

// lookup pKi for ACTTGSIWCALQFEPCA (linker 2-9-16 via TBMB) [Compound 64]
7.20

Fill blank: measured pKi of the binder [Sar][Sar]ACPWGPFWCPVNR[dA]GC (linker 4-11-18 via TBMB) [Compound 105] is ____.
6.33

So what does the record say about pKi for ARDDPCPWGPFWCPVNRPGCA (linker 6-13-20 via TBMB) [Compound 62] ?
7.55

I'd like to know its pKi. The binder in question is [Sar][Sar]ACPWGPFWCPVNR[Aib]GC (linker 4-11-18 via TBMB) [Compound 110]
6.86

pKi for ADVHCPWGPFWCPVNRPGCA (linker 5-12-19 via TBMB) [Compound 57] ?
8.92

Param item = [Sar][Sar]ACPWG[Aib]F[1Nal]CPVNRPGC (linker 4-11-18 via TBMB) [Compound 123] ; retrieve measured pKi.
7.34

Hello, the source for this data is patent US20200338203A1, in case you need it.
